Numbers sourced from ChEMBL document CHEMBL1201862.

# Tested on: BT-549
# Protocol: NCI tumour cell line growth inhibition, 48 h
The source made the active and inactive calls. Cut-off read from the data, not from the text of the source: active = GI50 up to about 1.1 µM and inactive = higher.
Value Kind: GI50

input: Return reported GI50; argument: CCOC(=O)C(NC(=O)CC)(Nc1ccc(S(=O)(=O)Nc2onc(C)c2C)cc1)C(F)(F)F (configuration not stated)
output: > 100 µM (inactive)

input: Return reported GI50; argument: O=C(O)CC[N+]1=CCC(c2ccccc2)(c2ccccc2)O1
output: > 100 µM (inactive)

input: Return reported GI50; argument: Clc1ccc(OCC2NC3CCC2CC3)cn1 (configuration not stated)
output: 68.7 µM (inactive)

input: Return reported GI50; argument: C/C1=C\CC[C@@]2(C)O[C@@H]2C[C@@H](C2(C)CO2)CC/C(C)=C/CC1 (some centres not stated)
output: 21.2 µM (inactive)

input: Return reported GI50; argument: COC(=O)c1cc2/c(=N/O)c3ccccc3sc2o1
output: > 100 µM (inactive)

input: Return reported GI50; argument: COC(=O)C1=C(C)NC(C)=C(C(=O)OC)C1c1ccccc1NO
output: > 100 µM (inactive)

input: Return reported GI50; argument: Cc1ccc(/C=C2/N/C(=N\N=C/c3ccccc3)NC2=O)cc1
output: 29.9 µM (inactive)

input: Return reported GI50; argument: COc1cc(C2c3cc4c(cc3OC(NCCO)C2C)OCO4)cc(OC)c1O (configuration not stated)
output: 9.53 µM (inactive)

input: Return reported GI50; argument: COc1c(C)c2c(c(=O)c3c(C)cccc3n2C)c2c1c(=O)c1c(C)cccc1n2C
output: > 10 µM (inactive)

input: Return reported GI50; argument: CCCCCCC(O)C(=O)OC1C2C(CC1(C)C)C(O)C13OC1C(O)C1(CO1)[C@@]23C (some centres not stated)
output: 50.1 µM (inactive)

input: Return reported GI50; argument: O=C(NCCN1CCOCC1)c1cn2c(ccc3sc4ccccc4c(=O)c32)n1
output: 27.8 µM (inactive)

input: Return reported GI50; argument: COCCNc1cncc(C(N)=O)c1
output: > 100 µM (inactive)

input: Return reported GI50; argument: CC(C)C(N)C(=O)NC(CCC(=O)NCCCCC(N)C(=O)NCCCNc1ccc([N+](=O)[O-])c2[nH]c3ccccc3c(=O)c12)C(N)=O (configuration not stated)
output: 13.7 µM (inactive)

input: Return reported GI50; argument: COc1cccc2cc(C(=O)NC34CC5CC(CC(C5)C3)C4)c(=N)oc12
output: > 80.7 µM (inactive)

input: Return reported GI50; argument: CN(C)/C=N/c1ccc2c3c(cccc13)-c1ccccc1-2
output: 17 µM (inactive)

input: Return reported GI50; argument: COc1ccc2oc(=O)c(-c3cc4c(c(C)n3)c(=O)oc3ccc(OC)cc34)cc2c1
output: > 100 µM (inactive)

input: Return reported GI50; argument: O=C(Nc1ccccc1C(=O)O)C(=Cc1ccccc1O)NC(=O)c1ccccc1
output: > 100 µM (inactive)
